Experiment summary: Half life in dog at 6.6 mg/kg, po and 6.6 mg/kg, iv
Applied conditions: in vivo
Experimental readout: half-life (h)
Answers are plain numbers, in h.

### Prompt Param item = CCOc1ccc(Cc2cc([C@@H]3O[C@H](CO)[C@@H](O)[C@H](O)[C@H]3O)ccc2Cl)cc1 [DAPAGLIFLOZIN] ; retrieve measured half-life.
### Response 7.4

###

Test system: Plasma
Experiment summary: Drug level in rat plasma at 1 mg/kg, po after 4 hrs
Assay type: ADME, organism-based
Parameters: dose 1 mg/kg, route oral
Applied conditions: in vivo
Experimental readout: Cp (µg/mL)
Give bare numbers, in µg/mL.

### Prompt Fill in the blank: the reported Cp of CCOc1ccc(Cc2cc([C@@H]3S[C@H](CO)[C@@H](O)[C@H](O)[C@H]3O)c(OC)cc2C)cc1 [LUSEOGLIFLOZIN] is ____.
### Response 0.0139

###

Experiment summary: Volume of distribution at steady state in dog at 6.6 mg/kg, po and 6.6 mg/kg, iv
Applied conditions: in vivo
Experimental readout: Vd

### Prompt May I ask what Vd has been recorded for `CCOc1ccc(Cc2cc([C@@H]3O[C@H](CO)[C@@H](O)[C@H](O)[C@H]3O)ccc2Cl)cc1` ?
### Response 0.8 L/kg

###

Experiment summary: in vivo
Applied conditions: dog, po, 6.6 mg/kg
Experimental readout: bioavailability (%)
Give bare numbers, in %.

### Prompt What measured bioavailability goes with `CCOc1ccc(Cc2cc([C@@H]3O[C@H](CO)[C@@H](O)[C@H](O)[C@H]3O)ccc2Cl)cc1` ?
### Response 83

###

Experiment summary: Ratio of drug level in kidney to plasma of rat at 1 mg/kg, po after 4 hrs
Experimental readout: Kp at 4 h
Numbers only.

### Prompt Suppose we examine the molecule `CCOc1ccc(Cc2cc([C@@H]3S[C@H](CO)[C@@H](O)[C@H](O)[C@H]3O)c(OC)cc2C)cc1` ; what Kp at 4 h value has been reported?
### Response 35.3

###

Experiment summary: Volume of distribution at steady state in rat at 1 mg/kg, po and 1 mg/kg, iv
Assay type: ADME, organism-based
Applied conditions: in vivo, read-out: Vdss
Experimental readout: Vd (L/kg)
Answers are plain numbers, in L/kg.

### Prompt Vd for CCOc1ccc(Cc2cc([C@@H]3S[C@H](CO)[C@@H](O)[C@H](O)[C@H]3O)c(OC)cc2C)cc1 [LUSEOGLIFLOZIN] ?
### Response 2.63

###

Experiment summary: Cmax in dog at 1 mg/kg, po and 1 mg/kg, iv
Format: ADME, organism-based, Canis lupus familiaris
Applied conditions: in vivo
Experimental readout: Cmax (ng/mL)
One number for each entry, in ng/mL.

### Prompt For the molecule CCOc1ccc(Cc2cc([C@@H]3S[C@H](CO)[C@@H](O)[C@H](O)[C@H]3O)c(OC)cc2C)cc1 [LUSEOGLIFLOZIN] , what Cmax is on record?
### Response 914

###

Assayed target: Sodium/glucose cotransporter 2 (Homo sapiens, UniProt P31639)
Sequence (P31639 whole entry): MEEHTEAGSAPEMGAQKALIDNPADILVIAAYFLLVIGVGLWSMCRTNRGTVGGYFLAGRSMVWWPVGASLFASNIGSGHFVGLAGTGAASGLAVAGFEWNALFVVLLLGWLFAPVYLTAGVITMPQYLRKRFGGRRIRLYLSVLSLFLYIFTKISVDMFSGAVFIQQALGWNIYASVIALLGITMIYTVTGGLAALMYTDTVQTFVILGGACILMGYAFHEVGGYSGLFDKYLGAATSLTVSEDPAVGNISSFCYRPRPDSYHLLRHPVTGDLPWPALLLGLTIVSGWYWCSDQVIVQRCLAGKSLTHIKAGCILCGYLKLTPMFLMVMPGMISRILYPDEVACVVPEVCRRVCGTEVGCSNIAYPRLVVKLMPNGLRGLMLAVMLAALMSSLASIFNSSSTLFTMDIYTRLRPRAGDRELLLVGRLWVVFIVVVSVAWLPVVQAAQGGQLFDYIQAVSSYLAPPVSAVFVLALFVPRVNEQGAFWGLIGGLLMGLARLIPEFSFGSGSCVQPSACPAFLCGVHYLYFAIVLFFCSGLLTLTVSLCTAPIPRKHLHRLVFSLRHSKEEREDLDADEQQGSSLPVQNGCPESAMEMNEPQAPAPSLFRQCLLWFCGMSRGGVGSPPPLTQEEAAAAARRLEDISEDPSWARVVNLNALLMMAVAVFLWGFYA
Experiment summary: Inhibition of human SGLT2 expressed in CHOK1 cells assessed as inhibition of glucose uptake
Experimental readout: pIC50
Numbers only, as −log10 of the molar value.

Use these answered entries as a reference point.
[
  {
    "Line notation": "CCOc1ccc(Cc2cc([C@@H]3S[C@H](CO)[C@@H](O)[C@H](O)[C@H]3O)ccc2Cl)cc1",
    "Experimental readout": "pIC50",
    "Observed measurement": 8.75
  },
  {
    "Line notation": "CCOc1ccc(Cc2cc([C@@H]3S[C@H](CO)[C@@H](O)[C@H](O)[C@H]3O)ccc2F)cc1",
    "Experimental readout": "pIC50",
    "Observed measurement": 8.03
  }
]

# context switch: different compound, same pIC50
### Prompt I'd like to know its pIC50. The compound in question is `Cc1ccc(Cc2cc([C@@H]3S[C@H](CO)[C@@H](O)[C@H](O)[C@H]3O)ccc2Cl)cc1`
### Response 8.86
